tested.on: UniProt:P46093
assay.method.text: Antagonist activity at N-terminal HA-tagged GPR4 (unknown origin) expressed in HEK293 cells assessed as pH dependent cAMP response element-driven transcriptional activity ratio at 10 uM at pH 7.2 incubated for 6 hrs by dual luciferase reporter gene assay relative to untreated control
Assay type: functional, cell-based
Sequence (P46093 whole entry, looked up): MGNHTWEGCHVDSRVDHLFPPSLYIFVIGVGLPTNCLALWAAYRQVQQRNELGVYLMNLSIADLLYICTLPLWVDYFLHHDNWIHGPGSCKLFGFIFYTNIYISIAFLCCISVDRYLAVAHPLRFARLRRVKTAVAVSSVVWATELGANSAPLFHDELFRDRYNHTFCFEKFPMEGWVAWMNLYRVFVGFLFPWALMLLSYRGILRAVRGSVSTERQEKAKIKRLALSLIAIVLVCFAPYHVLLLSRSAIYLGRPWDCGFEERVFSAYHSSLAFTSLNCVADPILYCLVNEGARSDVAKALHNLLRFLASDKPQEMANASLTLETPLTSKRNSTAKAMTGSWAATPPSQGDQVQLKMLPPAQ
quantity.kind: Ratio
Reply briefly: the number, and no unit.

CCc1nc2c(C)cc(C)nc2n1Cc1ccc2c(c1)CCc1cc(CN3CCCCC3)ccc1N2	0.39
c1ccc2c(c1)CCc1cc(Cn3c4ccccc4c4ccccc43)ccc1N2	1.03
CCc1nc2c(C)cc(C)nc2n1Cc1ccc2c(c1)C=Cc1ccccc1N2	0.36
CCc1nc2c(C)cc(C)nc2n1Cc1ccc2c(c1)CCc1cc(CN3CCOCC3)ccc1N2	0.41
CCc1nc2c(C)cc(C)nc2n1Cc1ccc2c(c1)Sc1ccccc1N2	0.38
c1ccc2c(c1)CCc1cc(Cn3ccc4ccccc43)ccc1N2	0.44

Next, consider the following compound.
Field request: Ratio | item: c1ccc2c(c1)CCc1cc(Cn3ccnc3)ccc1N2
1.11

* * *

Below, each entry is listed alongside its reported Ratio.
tested.on: G-prodeshotein coupled receptor 4 (Homo sapiens, UniProt P46093)
assay.method.text: Antagonist activity at N-terminal HA-tagged GPR4 (unknown origin) expressed in HEK293 cells assessed as pH dependent cAMP response element-driven transcriptional activity ratio at 10 uM at pH 7.2 incubated for 6 hrs by dual luciferase reporter gene assay relative to untreated control
Format: functional, cell-based

// below: answered compounds
CCc1nc2c(C)cc(C)nc2n1Cc1ccc2c(c1)CCc1ccccc1N2	0.22
CCc1nccn1Cc1ccc2c(c1)CCc1ccccc1N2	1.22
CCc1nc2c(C)cc(C)nc2n1Cc1ccccc1	0.72
c1ccc2c(c1)CCc1cc(Cn3cnc4ccccc43)ccc1N2	0.52
CCc1nc2c(C)cc(C)nc2n1Cc1ccc2c(c1)CCc1cc(CN3CCCC3)ccc1N2	0.4

Field request: Ratio | item: CCc1nc2c(C)cc(C)nc2n1Cc1ccc2c(c1)CCc1cc(CN3CCN(C)CC3)ccc1N2
0.42

Field request: Ratio | item: Cc1nc2ccccc2n1Cc1ccc2c(c1)CCc1ccccc1N2
0.57

Field request: Ratio | item: CCc1nc2ccccc2n1Cc1ccc2c(c1)CCc1ccccc1N2
0.44

Field request: Ratio | item: Cc1nccn1Cc1ccc2c(c1)CCc1ccccc1N2
1.24

Field request: Ratio | item: CCc1nc2c(C)cc(C)nc2n1Cc1ccc2ccccc2c1
0.52

Field request: Ratio | item: CCc1nc2c(C)cc(C)nc2n1Cc1ccc(Nc2ccccc2)cc1
0.54

* * *

tested.on: G-prodeshotein coupled receptor 4 (Homo sapiens)
assay.method.text: Antagonist activity at N-terminal HA-tagged GPR4 (unknown origin) expressed in HEK293 cells assessed as inhibition of pH dependent cAMP response element-driven transcriptional activity at pH 7.2 incubated for 6 hrs by dual luciferase reporter gene assay
Format: functional, cell-based
Sequence (P46093 whole entry): as the sequence (P46093 whole entry, looked up) above
quantity.kind: IC50 (nM)
Use nM as the unit, but write only the number.

// below: answered compounds
CCc1nc2c(C)cc(C)nc2n1Cc1ccc2c(c1)CCc1ccccc1N2	900
CCc1nc2c(C)cc(C)nc2n1Cc1ccc2c(c1)Sc1ccccc1N2	910
CCc1nc2c(C)cc(C)nc2n1Cc1ccc2c(c1)CCc1cc(CN3CCN(C)CC3)ccc1N2	130

Next, consider the following compound.
Field request: IC50 | item: CCc1nc2c(C)cc(C)nc2n1Cc1ccc2c(c1)CCc1cc(CN3CCCCC3)ccc1N2
67

* * *

tested.on: G-protein coupled receptor 65 (Homo sapiens, UniProt Q8IYL9)
Sequence (Q8IYL9 whole entry): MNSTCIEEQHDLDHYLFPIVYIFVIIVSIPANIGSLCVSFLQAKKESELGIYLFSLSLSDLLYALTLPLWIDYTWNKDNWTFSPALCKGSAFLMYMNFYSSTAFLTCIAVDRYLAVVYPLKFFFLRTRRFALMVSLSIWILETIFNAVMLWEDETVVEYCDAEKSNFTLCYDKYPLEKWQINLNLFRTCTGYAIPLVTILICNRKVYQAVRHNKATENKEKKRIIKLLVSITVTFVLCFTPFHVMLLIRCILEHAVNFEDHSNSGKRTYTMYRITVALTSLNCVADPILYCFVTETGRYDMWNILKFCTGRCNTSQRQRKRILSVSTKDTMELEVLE
assay.method.text: Antagonist activity at N-terminal HA-tagged TDAG8 receptor (unknown origin) expressed in HEK293 cells assessed as inhibition of pH dependent cAMP response element-driven transcriptional activity at pH 7.2 incubated for 6 hrs by dual luciferase reporter gene assay
quantity.kind: IC50

Field request: IC50 | item: CCc1nc2c(C)cc(C)nc2n1Cc1ccc2c(c1)CCc1cc(CN3CCCCC3)ccc1N2
> 10 µM

* * *

tested.on: G-protein coupled receptor 68 (Homo sapiens, UniProt Q15743)
Sequence (Q15743 whole entry): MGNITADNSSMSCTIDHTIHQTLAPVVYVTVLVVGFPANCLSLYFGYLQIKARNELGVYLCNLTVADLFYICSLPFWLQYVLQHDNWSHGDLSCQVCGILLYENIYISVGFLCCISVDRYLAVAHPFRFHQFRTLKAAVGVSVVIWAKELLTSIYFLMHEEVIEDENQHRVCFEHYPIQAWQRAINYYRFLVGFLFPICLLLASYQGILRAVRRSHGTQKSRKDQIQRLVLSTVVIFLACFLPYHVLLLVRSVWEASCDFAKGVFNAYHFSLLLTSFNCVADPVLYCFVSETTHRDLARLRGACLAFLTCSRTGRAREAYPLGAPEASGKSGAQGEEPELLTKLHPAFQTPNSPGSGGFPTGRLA
assay.method.text: Antagonist activity at N-terminal HA-tagged OGR1 (unknown origin) expressed in HEK293 cells assessed as inhibition of pH dependent nuclear factor of activated T-cell activity at pH 7.2 incubated for 6 hrs by dual luciferase reporter gene assay
quantity.kind: IC50

Field request: IC50 | item: CCc1nc2c(C)cc(C)nc2n1Cc1ccc2c(c1)CCc1cc(CN3CCCCC3)ccc1N2
> 10 µM

* * *

Below, each entry is listed alongside its reported pIC50.
tested.on: G-prodeshotein coupled receptor 4 (Homo sapiens)
assay.method.text: Antagonist activity at N-terminal HA-tagged GPR4 (unknown origin) expressed in HEK293 cells assessed as inhibition of pH dependent cAMP response element-driven transcriptional activity at pH 7.2 incubated for 6 hrs by dual luciferase reporter gene assay
pIC50: −log10 of the molar value.

// below: answered molecules
CCc1nc2c(C)cc(C)nc2n1Cc1ccc(Nc2ccccc2)cc1	< 5.00
c1ccc2c(c1)CCc1cc(Cn3cnc4ccccc43)ccc1N2	< 5.00

Field request: pIC50 | item: CCc1nc2ccccc2n1Cc1ccc2c(c1)CCc1ccccc1N2
< 5.00
